meta.source: patent US8048882B2

Reported ED50 at 35 min values for the following molecules.
# method-notes: Rotarod test
# conditions-used: male, NMRI, mouse, in vivo, in combination with fluoxetine (10 mg/kg), −35 min; read-out: ED50, rotarod test in mice
# Text: By the rotarod test (Dunnham, N. W., Miya, T. S. J. Am. Pharm. Assoc. 46, 208, 1957) impaired coordination and disorders of the voluntary movement as possible side effects can be studied. In this respect the change in the potency of the voltage-dependent sodium channel blockers caused by the serotonin uptake inhibitors was far less pronounced, resulting in a more favourable side effect profile of the combinations compared to that of the parent compounds. […]
Reply with just the number (in mg/kg).

Task: # ED50 at 35 min lookup, item Nc1nnc(-c2cccc(Cl)c2Cl)c(N)n1 [lamotrigine]
Result: 31.1

Proceed to the following item.
Task: // query ED50 at 35 min value for entry C[C@@H](CN1CC[C@@]2(C)c3cccc(O)c3C[C@@H]1C2(C)C)OCc1ccccc1 [crobenetine]
Result: 51

====

# method-notes: Rotarod test
# conditions-used: male, NMRI, mouse, in vivo, alone, −20 min; read-out: ED50, rotarod test in mice
property-name: ED50 at 20 min (mg/kg)
Expressed in mg/kg, but write only the number.

Task: Reported ED50 at 20 min, molecule CNCCC(Oc1ccc(C(F)(F)F)cc1)c1ccccc1 (stereo not shown) [fluoxetine] : ____
Result: 43.5

Task: GET /values?readout=ED50 at 20 min&item= C[C@@H](CN1CC[C@@]2(C)c3cccc(O)c3C[C@@H]1C2(C)C)OCc1ccccc1 [crobenetine]
Result: 68.1

Task: Using the record for Nc1nnc(-c2cccc(Cl)c2Cl)c(N)n1 [lamotrigine] , report its ED50 at 20 min.
Result: 34.3

// moving on: another record for ED50 at 20 min
Task: I am curious: what ED50 at 20 min value has been reported for CN[C@H]1CC[C@@H](c2ccc(Cl)c(Cl)c2)c2ccccc21 [sertraline] ?
Result: 112

====

# method-notes: Rotarod test
# conditions-used: male, NMRI, mouse, in vivo, in combination with sertraline (10 mg/kg), −35 min; read-out: ED50, rotarod test in mice
The following compounds are listed with their measured ED50 at 35 min values.
Enter your answer as a number in mg/kg; do not include the unit.

Task: Bench note: what ED50 at 35 min did Nc1nnc(-c2cccc(Cl)c2Cl)c(N)n1 show?
Result: 30.8

Please examine the following record next.
Task: Requested read-out: ED50 at 35 min. Entry: C[C@@H](CN1CC[C@@]2(C)c3cccc(O)c3C[C@@H]1C2(C)C)OCc1ccccc1
Result: 53.1

====

Catalogue of compounds with associated ED50 at 35 min
# method-notes: Rotarod test
# conditions-used: male, NMRI, mouse, in vivo, alone, −35 min; read-out: ED50, rotarod test in mice
Respond numerically; units are mg/kg and should not be typed.

Task: Query: ED50 at 35 min; subject: CNCCC(Oc1ccc(C(F)(F)F)cc1)c1ccccc1 (centres unmarked)
Result: 45.8

More entries:
Task: Requested read-out: ED50 at 35 min. Entry: CN[C@H]1CC[C@@H](c2ccc(Cl)c(Cl)c2)c2ccccc21
Result: 120

====

# method-notes: Rotarod test
# conditions-used: male, NMRI, mouse, in vivo, in combination with fluoxetine (10 mg/kg), −20 min; read-out: ED50, rotarod test in mice
Each entry below carries its reported ED50 at 20 min.
Your reply should be a number followed by the unit it is expressed in.

Task: Entry C[C@@H](CN1CC[C@@]2(C)c3cccc(O)c3C[C@@H]1C2(C)C)OCc1ccccc1 [crobenetine] has what ED50 at 20 min?
Result: 38.6 mg/kg

Here is another compound to look at.
Task: Entry Nc1nnc(-c2cccc(Cl)c2Cl)c(N)n1 [lamotrigine] has what ED50 at 20 min?
Result: 28.5 mg/kg
